All figures here come from the supplement of paper PMC8975748.

Tested on: Saccharomyces cerevisiae BY4741 SeMeCo community
Protocol: z-score of subpopulation abundance vs DMSO median, subpopulation auxotrophic for M; higher = larger share of this subpopulation than in DMSO controls
Condition info: 10 µM; 24 h; SM minimal medium; subpopulation (auxotrophy): M
Where a name gives a salt, the structure may show the parent alone.
Assign class by z-score of subpopulation abundance: not lower than -0.2 means Fulfilled; lower than -0.2 means Not fulfilled.

| Compound | Test target | Answer label |
| --- | --- | --- |
| CCS(=O)(=O)CCn1c([N+](=O)[O-])cnc1C | Saccharomyces cerevisiae BY4741 SeMeCo community | Not fulfilled |
| Nc1ccc(S(=O)(=O)c2ccc(N)cc2)cc1 | Saccharomyces cerevisiae BY4741 SeMeCo community | Fulfilled |
| Nc1c(Br)cc(Br)cc1CN[C@H]1CC[C@H](O)CC1 [Ambroxol HCl] | Saccharomyces cerevisiae BY4741 SeMeCo community | Not fulfilled |
| Nc1ccc(S(=O)(=O)Nc2ccnn2-c2ccccc2)cc1 | Saccharomyces cerevisiae BY4741 SeMeCo community | Fulfilled |
| N=C(N)NC(=O)c1nc(Cl)c(N)nc1N [Amiloride HCl] | Saccharomyces cerevisiae BY4741 SeMeCo community | Fulfilled |
| NC[C@H]1O[C@H](O[C@H]2[C@H](O)[C@@H](O[C@H]3O[C@H](CO)[C@@H](O)[C@H](N)[C@H]3O)[C@H](N)C[C@@H]2N)[C@H](O)[C@@H](O)[C@@H]1O [Kanamycin sulfate] | Saccharomyces cerevisiae BY4741 SeMeCo community | Fulfilled |
| C[C@]12CC[C@@H]3c4ccc(OC(=O)c5ccccc5)cc4CC[C@H]3[C@@H]1CC[C@@H]2O [Estradiol Benzoate] | Saccharomyces cerevisiae BY4741 SeMeCo community | Fulfilled |
| Cc1nc(NC(=O)N2CCC[C@H]2C(N)=O)sc1-c1ccnc(C(C)(C)C(F)(F)F)c1 | Saccharomyces cerevisiae BY4741 SeMeCo community | Fulfilled |
| CC(C)[C@H](N)C(=O)OCCOCn1cnc2c(=O)nc(N)[nH]c21 [Valaciclovir HCl] | Saccharomyces cerevisiae BY4741 SeMeCo community | Not fulfilled |
| NCC[C@H](O)C(=O)N[C@@H]1C[C@H](N)[C@@H](O[C@H]2O[C@H](CN)[C@@H](O)[C@H](O)[C@H]2O)[C@H](O)[C@H]1O[C@H]1O[C@H](CO)[C@@H](O)[C@H](N)[C@H]1O [Amikacin hydrate] | Saccharomyces cerevisiae BY4741 SeMeCo community | Fulfilled |
| CCC[C@@H]1C[C@@H](C(=O)N[C@@H]([C@H]2O[C@H](SC)[C@H](OP(=O)(O)O)[C@@H](O)[C@H]2O)[C@H](C)Cl)N(C)C1 [Clindamycin Phosphate] | Saccharomyces cerevisiae BY4741 SeMeCo community | Fulfilled |
| C[C@]12CCC(=O)C=C1[C@@H]1C[C@@H]1[C@H]1[C@@H]3[C@@H]4C[C@@H]4[C@@]4(CCC(=O)O4)[C@@]3(C)CC[C@@H]12 | Saccharomyces cerevisiae BY4741 SeMeCo community | Fulfilled |
| Cc1onc(-c2c(F)cccc2Cl)c1C(=O)N[C@@H]1C(=O)N2[C@@H]1SC(C)(C)[C@@H]2C(=O)O [Flucloxacillin sodium] | Saccharomyces cerevisiae BY4741 SeMeCo community | Fulfilled |
| CCOC(=O)C1=C(COCCN)NC(C)=C(C(=O)OC)C1c1ccccc1Cl (stereo not drawn) | Saccharomyces cerevisiae BY4741 SeMeCo community | Fulfilled |
| CCCCNc1ccc(C(=O)OCCN(C)C)cc1 [Tetracaine HCl] | Saccharomyces cerevisiae BY4741 SeMeCo community | Fulfilled |
| NCCc1ccc(O)c(O)c1 [Dopamine HCl] | Saccharomyces cerevisiae BY4741 SeMeCo community | Not fulfilled |
| CN1CCc2cc3c(cc2C(=O)Cc2ccc4c(c2C1)OCO4)OCO3 | Saccharomyces cerevisiae BY4741 SeMeCo community | Not fulfilled |
| NC(=O)OCC(COC(N)=O)c1ccccc1 [Felbamate] | Saccharomyces cerevisiae BY4741 SeMeCo community | Not fulfilled |
| CNC1CCCN(c2c(F)cc3c(=O)c(C(=O)O)cn(C4CC4)c3c2OC)C1 (stereo not drawn) | Saccharomyces cerevisiae BY4741 SeMeCo community | Fulfilled |
| Cc1ncc([N+](=O)[O-])n1CCOC(=O)c1ccccc1 [Metronidazole Benzoate] | Saccharomyces cerevisiae BY4741 SeMeCo community | Not fulfilled |
| NC(=NCCCCCCN=C(N)N=C(N)Nc1ccc(Cl)cc1)N=C(N)Nc1ccc(Cl)cc1 [Chlorhexidine?2HCl] | Saccharomyces cerevisiae BY4741 SeMeCo community | Not fulfilled |
| CNS(=O)(=O)CCc1ccc2[nH]cc(C3CCN(C)CC3)c2c1 [Naratriptan HCl] | Saccharomyces cerevisiae BY4741 SeMeCo community | Fulfilled |
| Clc1ccc(C(Cn2ccnc2)OCc2csc3c(Cl)cccc23)c(Cl)c1 (stereo not drawn) [Sertaconazole nitrate] | Saccharomyces cerevisiae BY4741 SeMeCo community | Not fulfilled |
| CCCCc1oc2ccccc2c1C(=O)c1cc(I)c(OCCN(CC)CC)c(I)c1 [Amiodarone HCl] | Saccharomyces cerevisiae BY4741 SeMeCo community | Fulfilled |
| Nc1ccc(S(N)(=O)=O)cc1 [Sulfanilamide] | Saccharomyces cerevisiae BY4741 SeMeCo community | Not fulfilled |
| COc1ccc(CNc2nc(N3CCC[C@H]3CO)ncc2C(=O)NCc2ncccn2)cc1Cl | Saccharomyces cerevisiae BY4741 SeMeCo community | Fulfilled |
| CC[C@@H]1C(=O)OC[C@@H]1Cc1cncn1C [Pilocarpine HCl] | Saccharomyces cerevisiae BY4741 SeMeCo community | Fulfilled |
| O=C1C(=O)c2ccccc2C(O)=C1C1CCC(c2ccc(Cl)cc2)CC1 (stereo not drawn) | Saccharomyces cerevisiae BY4741 SeMeCo community | Not fulfilled |
| CC[C@H]1OC(=O)[C@H](C)[C@@H](O[C@H]2C[C@@](C)(OC)[C@@H](O)[C@H](C)O2)[C@H](C)[C@@H](O[C@@H]2O[C@H](C)C[C@H](N(C)C)[C@H]2O)[C@](C)(O)C[C@@H](C)CN(C)[C@H](C)[C@@H](O)[C@]1(C)O | Saccharomyces cerevisiae BY4741 SeMeCo community | Not fulfilled |
| COc1cc(NS(=O)(=O)c2ccc(N)cc2)nc(OC)n1 [SulfadiMethoxine sodium] | Saccharomyces cerevisiae BY4741 SeMeCo community | Fulfilled |
| Clc1ccc(CSC(Cn2ccnc2)c2ccc(Cl)cc2Cl)cc1 (stereo not drawn) [Sulconazole Nitrate] | Saccharomyces cerevisiae BY4741 SeMeCo community | Not fulfilled |
| CN1[C@@H]2CC[C@H]1C[C@@H](OC(c1ccccc1)c1ccccc1)C2 [Benztropine mesylate] | Saccharomyces cerevisiae BY4741 SeMeCo community | Not fulfilled |
| CCCCOc1ccc(C(=O)CCN2CCCCC2)cc1 [Dyclonine HCl] | Saccharomyces cerevisiae BY4741 SeMeCo community | Fulfilled |
